Data provenance: PubChem BioAssay (NCI)

test system: HCT-15 colon; test: NCI tumour cell line growth inhibition, 48 h; in the data active = GI50 below about 0.43 µM; inactive = the rest
Respond only with the outcome that fits, drawn from active, inactive

What classification did CC(C)=NNc1ncnc2c1ncn2C1OC(CO)C(O)C1O (stereo not given) end up with in this test? active

What classification did COc1ccc(F)cc1/C=C/C(=O)/C=C(/C=C/c1cc(F)ccc1OC)OB(F)F end up with in this test? inactive

What classification did Cc1nc2ccccc2c(/C=C/c2ccc(Cl)cc2)c1C(=O)/C=C/c1ccc(F)cc1 end up with in this test? inactive

What classification did COc1cc(C(C)c2ccc3c(ccn3C)c2)cc(OC)c1OC (stereo not given) end up with in this test? active

What classification did COc1ccc(C(O)c2cc3c(N)c(C(=O)Nc4cccc(OC)c4)sc3nc2C)cc1 (stereo not given) end up with in this test? inactive

====

tested on: SN12C renal; test: NCI tumour cell line growth inhibition, 48 h
property.name: TGI (µM)
State the answer as a number, implicitly in µM.

Lab note: CC(=O)Nc1ccc(NNc2cc(=O)n(C)c(=O)[nH]2)cc1 gave TGI of 23.9

Lab note: C=C(C)C(CC=C(C)C)Cc1c(O)cc(OC)c2c1OC(c1ccc(O)cc1O)C(O)C2=O (stereo not given) gave TGI of 35.2

Lab note: COC(=O)C([C@H]1CC[C@H](OCc2ccccc2)[C@@]1(O)COCc1ccccc1)C(C)(O)CCc1ccccc1 (stereo not given in full) gave TGI of 16.2

====

tested on: DLD-1 colon; experiment: NCI tumour cell line growth inhibition, 48 h
property.name: TGI

Lab note: CN1C(=O)N(C)C(N2CCCC2)c2c1nc1ccccn1c2=O (centres undefined) gave TGI of > 100 µM

Lab note: CCOC(=O)C1(C(=O)OCC)OC(=O)NC2=C1CCCC2 gave TGI of > 100 µM

Lab note: COc1cc2c(cc1OC)C(Cc1ccc(Oc3cc(CC4c5cc(OC)c(OC)cc5CCN4C)ccc3O)cc1)N(C)CC2 (centres undefined) gave TGI of 38.7 µM

Lab note: NC(=O)n1ncc(Cl)c(Cl)c1=O gave TGI of > 100 µM

Lab note: C=CCN1C2Cc3cc(OC)c(OC)cc3C1Cc1cc(OC)c(OC)cc12 gave TGI of > 100 µM

Lab note: CCOC(=O)C1(c2ccccc2)CCCNCC1 (centres undefined) gave TGI of > 100 µM

Lab note: Cn1c2ccccc2c2ccc3c(c21)C(=O)C=CC3=O gave TGI of 6.02 µM

Lab note: Cn1c(/C=C/CO)c(CO)c2c1C(=O)C=C(N1CC1)C2=O gave TGI of 0.662 µM

Lab note: C=CCOC(C)n1c(C)c(Br)c(=O)[nH]c1=O (centres undefined) gave TGI of > 100 µM

Lab note: N.N.NCCCCCCN.O=C([O-])CCl.O=C([O-])CCl.O=C([O-])CCl.O=C([O-])CCl.[Pt+4].[Pt+4] gave TGI of > 50 µM

Lab note: O=S(=O)(c1ccccc1)C1CN2OC1(S(=O)(=O)c1ccccc1)CC21CCCCC1 (centres undefined) gave TGI of > 100 µM

Lab note: COc1ccccc1-n1c(C)nc2ccccc2c1=O gave TGI of > 100 µM

Lab note: CN(C)CCCCC1CCN(CC(=O)N2c3ccccc3NC(=O)c3ccccc32)CC1 gave TGI of > 100 µM

Lab note: CC1(C)C(=NN=C(N)N)C(C)(C)C1=NN=C(N)N gave TGI of > 100 µM

Lab note: COc1cccc2c1C(=O)c1c(O)c3c(c(O)c1C2=O)CC(O)(C(=O)CO)CC3OC1CC(N)C(I)C(C)O1 (centres undefined) gave TGI of 13.7 µM

Lab note: C/C(CC(=O)Nc1ccc(C)c(C)c1)=N\NC(N)=S gave TGI of > 100 µM

Lab note: Cc1c2cnccc2c(C)c2c1c1ccccc1n2CC1CO1 (centres undefined) gave TGI of 4.58 µM

Lab note: Cc1cc(C)nc(NS(=O)(=O)c2ccc(NC(=O)c3ccc(Cl)c4c(Nc5ccc(S(=O)(=O)Nc6cc(C)on6)cc5)c5ccccc5nc34)cc2)n1 gave TGI of 31.6 µM

Lab note: CC(=O)/C=C\C1CC2C=CC1C2 (centres undefined) gave TGI of > 100 µM

====

system: 786-0 renal; test: NCI tumour cell line growth inhibition, 48 h
property.name: TGI

Lab note: N#C/C(=C\c1cc(Br)c(O)c(Br)c1)c1ccccn1 gave TGI of > 100 µM

Lab note: Cc1ccc(S(=O)(=O)NCCN(CCNS(=O)(=O)c2ccc(C)cc2)S(=O)(=O)c2ccc(C)cc2)cc1 gave TGI of > 100 µM

Lab note: CCOC(=O)C1(c2ccccc2)CCCNCC1 (stereo unspecified) gave TGI of > 100 µM

Lab note: COc1ccc(Cc2nc3cc([N+](=O)[O-])ccc3n2C[C@@H]2CCCN3CCCCC23)cc1 (stereo partly specified) gave TGI of 40 µM

Lab note: Cn1c2ccccc2c2ccc3c(c21)C(=O)C=CC3=O gave TGI of 9.2 µM

Lab note: O=S(=O)(c1ccccc1)C1CN2OC1(S(=O)(=O)c1ccccc1)CC21CCCCC1 (stereo unspecified) gave TGI of > 100 µM

====

For each of the compounds below, state its TGI.
tested on: EKVX NSCLC; experiment: NCI tumour cell line growth inhibition, 48 h

Lab note: COc1ccc2[nH]c(C(O)(Cc3cccnc3)Cc3cccnc3)cc2c1 gave TGI of > 100 µM

Lab note: CN(CCNC(=O)c1nn(-c2ccccc2)c2c1ccc1ccccc12)CCNC(=O)c1nn(-c2ccccc2)c2c1ccc1ccccc12 gave TGI of 4.41 µM

Lab note: CN1CCN(CCCCN2c3ccccc3Sc3ccc(C(=O)c4ccccc4)cc32)CC1 gave TGI of 15.5 µM

Lab note: COCCCCCC(=O)CP(=O)(OC)OC gave TGI of > 100 µM

Lab note: c1cc2sc1CSCCSCCSC2 gave TGI of > 100 µM

Lab note: CCC1([N+](=O)[O-])CC2C=CC1C2 (stereo unspecified) gave TGI of > 100 µM

Lab note: CN1C(=O)N(C)C(N2CCCC2)c2c1nc1ccccn1c2=O (stereo unspecified) gave TGI of > 100 µM

Lab note: Cn1c2ccccc2c2ccc3c(c21)C(=O)C=CC3=O gave TGI of 38.6 µM

Lab note: O=C1OC(=O)C2=C1C(c1cccs1)C=C(c1cccnc1)N2c1ccncc1 (stereo unspecified) gave TGI of 31.4 µM

Lab note: C[C@H]1CC[C@@H]2[C@@H](C)C[C@H]3[C@@H]4C(C)(C)OC(=O)[C@]4(C)C(=O)[C@@]23C1=O gave TGI of > 100 µM

Lab note: O=C(CNc1c(Cl)cccc1Cl)Nc1ccc(-c2nc3ccccc3s2)cc1 gave TGI of 28.2 µM

Lab note: CNC(=S)NC(=S)N(C)C gave TGI of > 100 µM

Lab note: COc1ccc2c3c1O[C@H]1C(=O)C=CC4(n5[nH]c(=O)n(-c6ccccc6)c5=O)C(C2)N(C)CCC314 (stereo partly specified) gave TGI of > 100 µM

Lab note: COc1cc(OC)cc(C2C(C#N)=C(N)Oc3c2ccc2ccc(O)cc32)c1 (stereo unspecified) gave TGI of 6.66 µM

Lab note: FC(F)(F)CNc1nccc(-c2cnn3ncccc23)n1 gave TGI of > 25 µM

Lab note: Nc1nc(-c2ccccc2)cc(-c2ccccc2O)n1 gave TGI of > 100 µM

Lab note: CCc1c(C)[nH]c2c1/C(=N/N=C1\CCCc3[nH]c(C)c(CC)c31)CCC2 gave TGI of > 100 µM

Lab note: CC(C)(C)N/N=C(\C(=O)Nc1ccc([N+](=O)[O-])cc1[N+](=O)[O-])c1nc2ccc([N+](=O)[O-])cc2[nH]c1=O gave TGI of > 100 µM

Lab note: OC1(c2ccccc2)CCCCCCCCC(O)(c2ccccc2)CCCCCCCC1 (stereo unspecified) gave TGI of > 100 µM

Lab note: COc1cc2c(c(OC)c1OC)-c1ccc(SC)c(=O)cc1[C@@H](OC(=O)c1ccncc1)CC2 gave TGI of > 100 µM

Lab note: COc1cccc2cc(N(C)c3ncnc4ccccc34)ccc12 gave TGI of 13.6 µM

====

system: DMS 114 small cell lung; test: NCI tumour cell line growth inhibition, 48 h
property.name: TGI

Form field TGI for item CN1C(=O)N(C)C(N2CCCC2)c2c1nc1ccccn1c2=O (stereo unspecified) on DMS 114 small cell lung: > 100 µM

Form field TGI for item NC(=O)n1ncc(Cl)c(Cl)c1=O on DMS 114 small cell lung: > 100 µM

Form field TGI for item O=C(NC1C2CC3CC(C2)CC1C3)c1ccncn1 (stereo unspecified) on DMS 114 small cell lung: > 100 µM

Form field TGI for item O=[N+]([O-])c1ccc(N=Nc2c(O)[nH]c3ccc(Br)cc23)cc1 on DMS 114 small cell lung: 47.7 µM

Form field TGI for item CC1=Nn2c(nnc2-c2ccc(Cl)cc2)NC(C)(C)C1 on DMS 114 small cell lung: > 100 µM

Form field TGI for item Cc1c2cnccc2c(C)c2c1c1ccccc1n2CC1CO1 (stereo unspecified) on DMS 114 small cell lung: 2.43 µM
